The reported numbers originate from the supplement of paper PMC10567573.

Parameter protein stability index: see the listing below.
B1: ALKBH7 (parent)
chain: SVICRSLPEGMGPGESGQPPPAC

- Variants of: B1
- TEST PROTOCOL: protein stability index of a GFP-peptide fusion (GPS, HEK-293T) (PSI 1-6); higher = more stable;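 further: lentivirally expressed fusions sorted by FACS into six bins by GFP to DsRed ratio, PSI derived from sequencing read proportions per bin multiplied by bin number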
- ASSAY CONTEXT: c terminus: native
Answer with a bare number; do not write a unit.

VARIANT ID: P19F
protein stability index: 1.99

VARIANT ID: G17Q
protein stability index: 2.11

VARIANT ID: P19K
protein stability index: 3.18

VARIANT ID: V2Q
protein stability index: 2.26

VARIANT ID: G10D
protein stability index: 2.29

VARIANT ID: G14Q
protein stability index: 2.4

VARIANT ID: S16A
protein stability index: 1.97

VARIANT ID: E15V
protein stability index: 2.44

VARIANT ID: P21E
protein stability index: 2.47

VARIANT ID: P21T
protein stability index: 2.51

Kindly consider the entry below.
Quick one: give measured protein stability index for `V2A` 2.4
